# Target or test system: ROCK2 (Homo sapiens (Human), UniProt O75116);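 note: rho kinase enzyme reaction halted with EDTA, phospho- and non-phospho peptide separated for read-out, kinase activity inhibition derived across a dose-response series, DMSO under 2%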
# Sequence (O75116 whole entry, species assumed): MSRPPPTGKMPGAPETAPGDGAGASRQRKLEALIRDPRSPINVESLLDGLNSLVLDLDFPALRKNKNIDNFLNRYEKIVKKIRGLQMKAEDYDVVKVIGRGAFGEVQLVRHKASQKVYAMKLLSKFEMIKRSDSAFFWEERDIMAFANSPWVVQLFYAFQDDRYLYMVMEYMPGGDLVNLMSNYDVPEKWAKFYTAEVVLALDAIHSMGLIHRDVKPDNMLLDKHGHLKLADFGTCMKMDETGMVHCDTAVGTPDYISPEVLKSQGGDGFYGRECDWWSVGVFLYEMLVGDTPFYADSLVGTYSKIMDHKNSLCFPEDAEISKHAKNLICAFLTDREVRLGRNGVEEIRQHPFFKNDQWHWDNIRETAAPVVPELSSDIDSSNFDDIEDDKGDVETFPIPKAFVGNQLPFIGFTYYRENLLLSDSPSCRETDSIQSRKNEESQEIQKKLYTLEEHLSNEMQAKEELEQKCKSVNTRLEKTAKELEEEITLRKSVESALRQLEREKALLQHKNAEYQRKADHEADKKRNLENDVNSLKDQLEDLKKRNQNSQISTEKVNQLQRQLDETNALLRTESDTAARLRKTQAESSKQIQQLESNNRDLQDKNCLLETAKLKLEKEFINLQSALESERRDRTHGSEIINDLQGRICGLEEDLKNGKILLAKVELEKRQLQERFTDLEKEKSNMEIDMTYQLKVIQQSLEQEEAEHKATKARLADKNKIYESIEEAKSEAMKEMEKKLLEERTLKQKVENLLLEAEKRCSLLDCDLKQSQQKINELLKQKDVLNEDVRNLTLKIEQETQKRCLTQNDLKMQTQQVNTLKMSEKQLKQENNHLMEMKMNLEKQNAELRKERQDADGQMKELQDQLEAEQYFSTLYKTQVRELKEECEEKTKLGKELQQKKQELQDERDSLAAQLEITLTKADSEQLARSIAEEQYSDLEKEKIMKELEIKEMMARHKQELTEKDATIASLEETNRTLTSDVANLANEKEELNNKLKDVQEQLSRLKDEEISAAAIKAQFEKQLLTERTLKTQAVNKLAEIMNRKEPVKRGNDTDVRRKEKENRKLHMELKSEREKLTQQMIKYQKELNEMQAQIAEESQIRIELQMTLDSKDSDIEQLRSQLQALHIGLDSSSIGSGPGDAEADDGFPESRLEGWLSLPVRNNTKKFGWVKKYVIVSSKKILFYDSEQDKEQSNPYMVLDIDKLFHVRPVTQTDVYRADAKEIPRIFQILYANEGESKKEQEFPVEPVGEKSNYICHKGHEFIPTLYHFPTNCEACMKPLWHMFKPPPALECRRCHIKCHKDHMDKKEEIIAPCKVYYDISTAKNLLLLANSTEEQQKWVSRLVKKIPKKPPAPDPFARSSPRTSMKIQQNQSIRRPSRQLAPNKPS
# Test summary: biochemical
Where a name gives a salt, the structure may show the parent alone.
Readout kind: IC50

These solved cases illustrate the format of a correct answer.
Compound: O=C1C(Nc2cccc(F)c2F)CCN1c1ccc(-c2cn[nH]c2)cc1 (single isomer, unassigned)
Measured value: < 0.01 µM

Compound: O=C1C(NCc2ccccc2)CCN1c1ccc(-c2cn[nH]c2)cc1 (centres unmarked)
Measured value: 0.1 to 2.2 µM

Compound: CCc1cc(N2CCC(Nc3ccc(F)c(OC)c3)C2=O)ccc1-c1cn[nH]c1 (single isomer, unassigned)
Measured value: 0.01 to 0.1 µM

Compound: COc1nc(N2CCC(Nc3ccc(F)c(OCC4CC4)c3)C2=O)ccc1-c1cn[nH]c1 (single isomer, unassigned) [Example 216]
Measured value: < 0.01 µM

Compound: CCOc1cc(N2CCC(Nc3cc(F)cc(OC)c3)C2=O)ccc1-c1cn[nH]c1 (single isomer, unassigned) [Example 36]
Measured value: < 0.01 µM

For COc1nc(N2CCC(N3CCCC(F)C3)C2=O)ccc1-c1cn[nH]c1 (racemic) [Example 283, hydrochloride] the compound record lists IC50 as 0.01 to 0.1 µM

For COc1nc(N2CCC(Nc3cccc(-c4cnco4)c3)C2=O)ccc1-c1cn[nH]c1 (racemic) the compound record lists IC50 as 0.01 to 0.1 µM

For CCc1cc(N2CCC(Nc3cccc(OC)c3)C2=O)ccc1-c1cn[nH]c1 (single isomer, unassigned) [Example 244] the compound record lists IC50 as < 0.01 µM

For O=C1C(Nc2cccc(OC(F)F)c2)CCN1c1ccc(-c2cn[nH]c2)c(F)c1 (single isomer, unassigned) the compound record lists IC50 as 0.01 to 0.1 µM

For CCOc1cc(N2CCC(Nc3ccc(F)c(OC)c3)C2=O)ccc1-c1cn[nH]c1 (single isomer, unassigned) the compound record lists IC50 as 0.01 to 0.1 µM
